# Test system: KURAMOCHI
# testName: cells
# Assay type: functional, cell-based
# settings: Homo sapiens
# Description: SANGER: Inhibition of human KURAMOCHI cell growth in a cell viability assay.
pIC50: −log10 of the molar value.
Quick reference: pIC50 of the listed items.

# annotated cases, reported pIC50 shown
INSERT INTO results (molecule, measurementname, value) VALUES
  ('C[C@]1(c2nc3c(C(N)=O)cccc3[nH]2)CCCN1', 'pIC50', '< 5.30'),
  ('CC[C@@]1(O)C(=O)OCc2c1cc1n(c2=O)Cc2cc3ccccc3nc2-1', 'pIC50', '< 7.00');

# query: pIC50 | item COc1cc(Nc2c(C#N)cnc3cc(OCCCN4CCN(C)CC4)c(OC)cc23)c(Cl)cc1Cl | system: KURAMOCHI;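 also: growth inhibition of KURAMOCHI cells, read out with a cell viability assay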
< 5.70

And for Fc1cc(-c2cc[nH]/c(=N/c3ccc(-n4cnc(N5CCOCC5)n4)cc3)n2)cc(N2CCOCC2)c1 ?
6.22

* * *

# System: SCC-4
# testName: cells
# Assay type: functional, cell-based
# settings: Homo sapiens
# Description: SANGER: Inhibition of human SCC-4 cell growth in a cell viability assay.
measurementName: pIC50
pIC50 field: float, defined as -log10 of concentration (mol/L).

# annotated cases, reported pIC50 shown
INSERT INTO measurements (entrysmiles, experimentalsystem, measurementname, value) VALUES
  ('CC[C@]1(O)C[C@@H]2CN(CCc3c([nH]c4ccccc34)[C@@](C(=O)OC)(c3cc4c(cc3OC)N(C)[C@H]3[C@@](O)(C(=O)OC)[C@H](OC(C)=O)[C@]5(CC)C=CCN6CC[C@]43[C@@H]65)C2)C1', 'SCC-4', 'pIC50', 8.62),
  ('CO[C@@]12[C@H](COC(N)=O)C3=C(C(=O)C(C)=C(N)C3=O)N1C[C@@H]1N[C@@H]12', 'SCC-4', 'pIC50', 6.41);

Moving on to the next compound.
# query: pIC50 | item NC(=O)c1ncn([C@@H]2O[C@H](COP(=O)(O)O)[C@@H](O)[C@H]2O)c1N | system: SCC-4;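 also: growth inhibition of human SCC-4 cells, read out as cell viability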
2.91

* * *

Quick reference: IC50 of the listed items.
# System: SK-MEL-24
# testName: cells
# Type: functional, cell-based
# settings: Homo sapiens
# Description: SANGER: Inhibition of human SK-MEL-24 cell growth in a cell viability assay.

# annotated cases, reported IC50 shown
INSERT INTO assay_data (entrysmiles, experimentalsystem, value) VALUES
  ('N#C/C(=C1/Nc2ccccc2S1)c1ccnc(NCCc2cccnc2)n1', 'SK-MEL-24', '> 8 µM'),
  ('Fc1cc(-c2cc[nH]/c(=N/c3ccc(-n4cnc(N5CCOCC5)n4)cc3)n2)cc(N2CCOCC2)c1', 'SK-MEL-24', '> 5.12 µM'),
  ('COc1cc(Nc2c(C#N)cnc3cc(OCCCN4CCN(C)CC4)c(OC)cc23)c(Cl)cc1Cl', 'SK-MEL-24', '> 2 µM');

# query: IC50 | item CC[C@@]1(O)C(=O)OCc2c1cc1n(c2=O)Cc2cc3ccccc3nc2-1 | system: SK-MEL-24;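 also: growth inhibition read out by a cell viability assay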
0.0385 µM

And for CCCS(=O)(=O)Nc1ccc(F)c(C(=O)c2c[nH]c3ncc(Cl)cc23)c1F ?
> 10 µM

And for Cn1c(=O)n(-c2ccc(C(C)(C)C#N)cc2)c2c3cc(-c4cnc5ccccc5c4)ccc3ncc21 ?
0.517 µM

* * *

# Tested on: OE33;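 also: growth inhibition of human OE33 cells, measured by a cell viability assay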
# testName: cells
# Type: functional, cell-based
# settings: Homo sapiens
# Description: SANGER: Inhibition of human OE33 cell growth in a cell viability assay.
Quick reference: IC50 of the listed items.
Answer in nM, number only, no unit symbol.

# annotated cases, reported IC50 shown
INSERT INTO measurements (entrysmiles, measurementname, unitannotation, value) VALUES
  ('CC(C)=CC[C@@H](O)C1=CC(=O)c2c(O)ccc(O)c2C1=O', 'IC50', 'nM', 1810),
  ('CO[C@@]12[C@H](COC(N)=O)C3=C(C(=O)C(C)=C(N)C3=O)N1C[C@@H]1N[C@@H]12', 'IC50', 'nM', 338),
  ('Fc1cc(-c2cc[nH]/c(=N/c3ccc(-n4cnc(N5CCOCC5)n4)cc3)n2)cc(N2CCOCC2)c1', 'IC50', 'nM', 517);

Moving on to the next molecule.
Data request, read-out IC50, for O=C(CCCCCCC(=O)Nc1ccccc1)NO
4880
